TARGET UNDER TEST: KRAS G13C (Homo sapiens, UniProt P01116+P62937, G13C)
Sequence (P01116 1-169 isoform P01116-2 G13C limits assumed): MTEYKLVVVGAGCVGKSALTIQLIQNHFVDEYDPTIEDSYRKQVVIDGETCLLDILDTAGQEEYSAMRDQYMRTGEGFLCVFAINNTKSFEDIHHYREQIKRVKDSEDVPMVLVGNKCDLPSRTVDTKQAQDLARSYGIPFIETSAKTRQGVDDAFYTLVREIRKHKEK
Sequence (P62937 whole entry): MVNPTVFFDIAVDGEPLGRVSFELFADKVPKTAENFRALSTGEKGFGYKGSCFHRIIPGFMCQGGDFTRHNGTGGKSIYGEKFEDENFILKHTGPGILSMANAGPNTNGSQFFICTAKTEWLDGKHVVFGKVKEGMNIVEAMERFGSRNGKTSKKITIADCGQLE
EXPERIMENTAL PROTOCOL: Ras-Raf disruption/FRET/MOA assay, KRAS G13C
Assay type: biochemical
PROTOCOL CONDITIONS: disruption of BRAF RBD binding, with Cyclophilin A; read-out: KRAS G13C FRET IC50
From the text: Disruption of B-Raf Ras-Binding Domain (BRAF^RBD) Interaction with K-Ras by Compounds of the Invention (Also Called a FRET Assay or an MOA Assay) Note—The following protocol describes a procedure for monitoring disruption of K-Ras G12C (GMP-PNP) binding to BRAF^RBD by a compound of the invention. This protocol may also be executed substituting other Ras proteins or nucleotides, such as K-Ras G12D and K-Ras G13D. […]
OBSERVATION TYPE: IC50

Give its IC50 value. Item: CCn1c(-c2cnccc2COC)c2c3cc(ccc31)-c1cc(O)cc(c1)C[C@H](NC(=O)[C@H](C(C)C)N(C)C(=O)[C@H]1CCN(C(=O)N3C[C@@H]3C(=O)OC)C1)C(=O)N1CCC[C@H](N1)C(=O)OCC(C)(C)C2 [Compound 94]
10 to 100 nM

Repeat with CCn1c(-c2cccnc2[C@H](C)OC)c2c3cc(ccc31)-c1csc(n1)C[C@H](NC(=O)[C@H](C(C)C)N(C)C(=O)N1CCC[C@@H](N(C)C(=O)[C@@H]3CN3)C1)C(=O)N1CCC[C@H](N1)C(=O)OCC(C)(C)C2 (atropisomer, axis not shown) [Compound 291]
100 to 1000 nM

Repeat with CCn1c(-c2cc(N3CCN(C)CC3)cnc2[C@H](C)OC)c2c3cc(ccc31)-c1csc(n1)C[C@H](NC(=O)[C@H](C1CCCC1)N1CC[C@]3(CCN(C(=O)[C@@H]4N[C@@H]4C4CC4)C3)C1=O)C(=O)N1CCC[C@H](N1)C(=O)OCC(C)(C)C2 [Compound 324]
100 to 1000 nM

Repeat with CCn1c(-c2cnccc2COC)c2c3cc(ccc31)-c1cc(O)cc(c1)C[C@H](NC(=O)[C@H](C(C)C)N(C)C(=O)CN(C)C(=O)C1CN1C(C)=O)C(=O)N1CCC[C@H](N1)C(=O)OCC(C)(C)C2 (some centres unmarked) [Compound 14]
10 to 100 nM

Repeat with CCn1c(-c2cccnc2[C@H](C)OC)c2c3cc(ccc31)-c1cc(O)cc(c1)C[C@H](NC(=O)[C@H](C1CCCC1)N1CC[C@@]3(CCN(C(=O)[C@@H]4N[C@@H]4C4CC4)C3)C1=O)C(=O)N1CCC[C@H](N1)C(=O)OCC(C)(C)C2 [Compound 215]
10 to 100 nM

Repeat with CCn1c(-c2cccnc2[C@H](C)OC)c2c3cc(ccc31)-c1csc(n1)C[C@H](NC(=O)[C@H](C(C)C)N(C)C(=O)N1C3CCC1CN(C(=O)[C@H]1CN1)C3)C(=O)N1CCC[C@H](N1)C(=O)OCC(C)(C)C2 [Compound 303]
100 to 1000 nM

Repeat with CCn1c(-c2cccnc2[C@H](C)OC)c2c3cc(ccc31)-c1cc(O)cc(c1)C[C@H](NC(=O)[C@H](C(C)C)N1CCC3(CCN(C(=O)[C@H]4CN4)CC3)C1=O)C(=O)N1CCC[C@H](N1)C(=O)OCC(C)(C)C2 [Compound 196]
10 to 100 nM

Repeat with CCn1c(-c2cnccc2COC)c2c3cc(ccc31)-c1cc(O)cc(c1)C[C@H](NC(=O)[C@@H](CNC1=NCCO1)C(C)C)C(=O)N1CCC[C@H](N1)C(=O)OCC(C)(C)C2 [Compound 29]
1000 to 10000 nM

###

Tested on: AsPC-1 (K-Ras G12D)
EXPERIMENTAL PROTOCOL: CellTiter-Glo cell viability assay, AsPC-1
Type: cell-based
PROTOCOL CONDITIONS: Homo sapiens, ASPC1, 120 h, read-out: AsPC-1 Cell Viability IC50, AsPC-1, K-Ras G12D, 5-day treatment
pIC50: −log10 of the molar value.
OBSERVATION TYPE: pIC50

Give its pIC50 value. Item: CCn1c(-c2cnccc2COC)c2c3cc(ccc31)-c1cc(O)cc(c1)C[C@H](NC(=O)[C@H](C(C)C)N(C)C(=O)CN(C)C(=O)[C@@H]1N[C@H]1c1ccc(OC)cc1)C(=O)N1CCC[C@H](N1)C(=O)OCC(C)(C)C2
5.00 to 6.00

Repeat with CCn1c(-c2cccnc2[C@H](C)OC)c2c3cc(ccc31)-c1cc(O)cc(c1)C[C@H](NC(=O)[C@H](C(C)C)N(C)C(=O)CN(C)C(=O)[C@H]1N[C@@H]1C1CC1)C(=O)N1CCC[C@H](N1)C(=O)OCC(C)(C)C2
6.00 to 7.00

Repeat with CCn1c(-c2cccnc2[C@H](C)OC)c2c3cc(ccc31)-c1cc(O)cc(c1)C[C@H](NC(=O)[C@H](C(C)C)N(C)C(=O)CN(C)C(=O)[C@H]1CN1C1COC1)C(=O)N1CCC[C@H](N1)C(=O)OCC(C)(C)C2 (stereo partly shown)
5.00 to 6.00

Repeat with CCn1c(-c2cnccc2COC)c2c3cc(ccc31)-c1cc(O)cc(c1)C[C@H](NC(=O)[C@H](C(C)C)N(C)C(=O)CN(C)C(=O)[C@@H]1N[C@@H]1C1CC1)C(=O)N1CCC[C@H](N1)C(=O)OCC(C)(C)C2
6.00 to 7.00

###

TARGET UNDER TEST: KRAS G13D (Homo sapiens, UniProt P01116+P62937, G13D)
Sequence (P01116 1-169 isoform P01116-2 G13D limits assumed): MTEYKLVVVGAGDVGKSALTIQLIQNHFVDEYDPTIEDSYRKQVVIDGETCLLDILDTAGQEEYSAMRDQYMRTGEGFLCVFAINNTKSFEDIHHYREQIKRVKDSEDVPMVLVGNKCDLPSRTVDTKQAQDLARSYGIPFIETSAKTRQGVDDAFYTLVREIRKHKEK
Sequence (P62937 whole entry): as the sequence (P62937 whole entry) above
EXPERIMENTAL PROTOCOL: Ras-Raf disruption/FRET/MOA assay, KRAS G13D
Assay type: biochemical
PROTOCOL CONDITIONS: disruption of BRAF RBD binding, with Cyclophilin A; read-out: KRAS G13D FRET IC50
Description: Disruption of B-Raf Ras-Binding Domain (BRAF^RBD) Interaction with K-Ras by Compounds of the Invention (Also Called a FRET Assay or an MOA Assay) Note—The following protocol describes a procedure for monitoring disruption of K-Ras G12C (GMP-PNP) binding to BRAF^RBD by a compound of the invention. This protocol may also be executed substituting other Ras proteins or nucleotides, such as K-Ras G12D and K-Ras G13D. […]
pIC50: −log10 of the molar value.
OBSERVATION TYPE: pIC50

Give its pIC50 value. Item: CCn1c(-c2cccnc2[C@H](C)OC)c2c3cc(ccc31)-c1cc(O)cc(c1)C[C@H](NC(=O)[C@H](C(C)C)N1CC[C@]3(CCCN(C(=O)[C@@H]4CN4)C3)C1=O)C(=O)N1CCC[C@H](N1)C(=O)OCC(C)(C)C2
5.00 to 6.00

Repeat with CCn1c(-c2cccnc2[C@H](C)OC)c2c3cc(ccc31)-c1cccc(c1)C[C@H](NC(=O)[C@H](C(C)C)N1CC[C@H](CN=C=NCCOC)C1)C(=O)N1CCC[C@H](N1)C(=O)OCC(C)(C)C2
< 5.00

Repeat with CCn1c(-c2cccnc2[C@H](C)OC)c2c3cc(ccc31)-c1csc(n1)C[C@H](NC(=O)[C@H](C1CCCC1)N1CC[C@]3(CCN(C(=O)[C@H]4CN4)C3)C1=O)C(=O)N1CCC[C@H](N1)C(=O)OCC(C)(C)C2
5.00 to 6.00

Repeat with CCn1c(-c2cccnc2[C@H](C)OC)c2c3cc(ccc31)-c1csc(n1)C[C@H](NC(=O)[C@H](C(C)C)N(C)C(=O)N1CCC[C@H](N(C)C(=O)[C@H]3CN3)C1)C(=O)N1CCC[C@H](N1)C(=O)OCC(C)(C)C2 (atropisomer, axis not shown)
5.00 to 6.00

Repeat with CCn1c(-c2cccnc2[C@H](C)OC)c2c3cc(ccc31)-c1cc(O)cc(c1)C[C@H](NC(=O)[C@H](C(C)C)N1CC[C@]3(CCCN(C(=O)[C@H]4CN4)C3)C1=O)C(=O)N1CCC[C@H](N1)C(=O)OCC(C)(C)C2
6.00 to 7.00

Repeat with CCn1c(-c2cccnc2[C@H](C)OC)c2c3cc(ccc31)-c1cc(O)cc(c1)C[C@H](NC(=O)[C@H](C(C)C)N1CCCC3(CN(C(=O)[C@H]4CN4)C3)C1=O)C(=O)N1CCC[C@H](N1)C(=O)OCC(C)(C)C2
7.00 to 8.00

Repeat with CCn1c(-c2cccnc2[C@H](C)OC)c2c3cc(ccc31)-c1csc(n1)C[C@H](NC(=O)[C@H](C(C)C)N(C)C(=O)N1C3CCC1CN(C(=O)[C@@H]1CN1)C3)C(=O)N1CCC[C@H](N1)C(=O)OCC(C)(C)C2
5.00 to 6.00

Repeat with CCn1c(-c2cccnc2[C@H](C)OC)c2c3cc(ccc31)-c1cc(O)cc(c1)C[C@H](NC(=O)[C@H](C(C)C)N1CC[C@]3(CCN(C[C@@H]4CN4)C3)C1=O)C(=O)N1CCC[C@H](N1)C(=O)OCC(C)(C)C2
7.00 to 8.00

Repeat with CCn1c(-c2cccnc2[C@H](C)OC)c2c3cc(ccc31)-c1cc(O)cc(c1)C[C@H](NC(=O)[C@H](C(C)C)N1CC[C@@]3(CCCN(C(=O)[C@H]4CN4)C3)C1=O)C(=O)N1CCC[C@H](N1)C(=O)OCC(C)(C)C2
6.00 to 7.00

Repeat with CCn1c(-c2cccnc2[C@H](C)OC)c2c3cc(ccc31)-c1cc(O)cc(c1)C[C@H](NC(=O)[C@H](C1CCCC1)N1CC[C@@]3(CCN(C(=O)[C@@H]4N[C@@H]4C4CC4)C3)C1=O)C(=O)N1CCC[C@H](N1)C(=O)OCC(C)(C)C2
6.00 to 7.00

Repeat with CCn1c(-c2cccnc2[C@H](C)OC)c2c3cc(ccc31)-c1csc(n1)C[C@H](NC(=O)[C@H](C(C)C)N(C)C(=O)N1C3CCC1CN(C(=O)[C@H]1CN1)C3)C(=O)N1CCC[C@H](N1)C(=O)OCC(C)(C)C2
6.00 to 7.00

Repeat with CCn1c(-c2cnccc2COC)c2c3cc(ccc31)-c1cc(O)cc(c1)C[C@H](NC(=O)[C@@H](CNC1=NCCO1)C(C)C)C(=O)N1CCC[C@H](N1)C(=O)OCC(C)(C)C2
5.00 to 6.00

Repeat with CCn1c(-c2cccnc2[C@H](C)OC)c2c3cc(ccc31)-c1cc(O)cc(c1)C[C@H](NC(=O)[C@H](C(C)C)N1CO[C@@]3(CCN(C(=O)[C@H]4CN4)C3)C1=O)C(=O)N1CCC[C@H](N1)C(=O)OCC(C)(C)C2
6.00 to 7.00

Repeat with CCn1c(-c2cnccc2COC)c2c3cc(ccc31)-c1cc(O)cc(c1)C[C@H](NC(=O)[C@H](C(C)C)N(C)C(=O)CN(C)C(=O)[C@H]1CN1S(C)(=O)=O)C(=O)N1CCC[C@H](N1)C(=O)OCC(C)(C)C2 (stereo partly shown)
6.00 to 7.00

Repeat with CCn1c(-c2cnccc2COC)c2c3cc(ccc31)-c1cc(O)cc(c1)C[C@H](NC(=O)[C@H](C(C)C)N(C)C(=O)CN(C)C(=O)[C@H]1CN1C(=O)OC)C(=O)N1CCC[C@H](N1)C(=O)OCC(C)(C)C2
6.00 to 7.00

Repeat with CCn1c(-c2cnccc2COC)c2c3cc(ccc31)-c1cc(O)cc(c1)C[C@H](NC(=O)[C@H](C(C)C)N(C)C(=O)CN(C)C(=O)[C@@H]1CN1C(=O)OC)C(=O)N1CCC[C@H](N1)C(=O)OCC(C)(C)C2
6.00 to 7.00

Data provenance: patent US11739074B2
